# Tested on: SN12C renal
# test-details: NCI tumour cell line growth inhibition, 48 h; in the data active = GI50 below about 0.43 µM; inactive = the rest
Possible outcomes: y = active, n = inactive

{"molecule": "Cn1nc(-c2cccs2)cc1/N=C(\\N)C(C)(C#N)Cc1ccccc1 (stereo unspecified)", "assigned-category": "n"}
{"molecule": "CN(C)c1ccc2nc3ccc(=N)cc-3sc2c1", "assigned-category": "n"}
{"molecule": "CCN(CC)c1ccc(N=O)cc1", "assigned-category": "n"}
{"molecule": "COc1cc(/C=C/C(=O)c2cc(OC)c(OC)c(OC)c2)ccc1Oc1nc2c(c(=O)n(C)c(=O)n2C)n1C", "assigned-category": "n"}
{"molecule": "COc1cc(-n2cncc2-c2ccc3ccccc3c2)cc(OC)c1OC", "assigned-category": "n"}
{"molecule": "CCC[CH2][Sn]([CH2]CCC)([O]C(=O)Cc1ccc(F)cc1)[O]C(=O)Cc1ccc(F)cc1", "assigned-category": "n"}
{"molecule": "COc1cc(/C=C2\\CC3C4CCC5=CC(=O)CC[C@]5(C)C4CC[C@]3(C)C2=O)ccc1OCCCn1ccnc1 (stereo partly specified)", "assigned-category": "n"}
{"molecule": "Ic1ccc2[nH]cc(SSc3c[nH]c4ccc(I)cc34)c2c1", "assigned-category": "n"}
{"molecule": "CC1=C(SCCC(=O)OCC(=O)NCCC[Te]c2ccccc2)C(=O)c2ccccc2C1=O", "assigned-category": "n"}
{"molecule": "O=C(Cc1csc2nc(-c3ccc(Br)cc3)cn12)N/N=C/c1cc(Br)ccc1O", "assigned-category": "n"}
{"molecule": "COc1cc2c(cc1O)N=C[C@@H]1C[C@@H](F)CN1C2=O", "assigned-category": "n"}
{"molecule": "CCOC(=O)c1ccc2c(c1)c1c(C)c3ccncc3c(C)c1n2C", "assigned-category": "n"}
{"molecule": "CCOC(=O)c1cc(C(=O)c2ccc(Cl)cc2)n2ccc(-c3cc[n+](CC(=O)c4ccc(OC)cc4)cc3)cc12", "assigned-category": "n"}
{"molecule": "CCOC(=O)c1cc(NC(=O)c2cc(NC(=O)c3cc(NC(=O)c4c(-c5ccccc5)noc4C)cn3C)cn2C)cn1C", "assigned-category": "n"}
{"molecule": "Cc1cccc(NC(=O)c2sc3nc4c(cc3c2N)CCCC4)c1", "assigned-category": "n"}
{"molecule": "COc1cccc2c1C(CO)N1C(C#N)C3CC(C(=O)O)C(C1C2)N3C (stereo unspecified)", "assigned-category": "y"}
{"molecule": "COc1cc2c3c(n(CCCN=[N+]=[N-])c(=O)c2cc1OC)-c1ccc(C#N)cc1C3=O", "assigned-category": "n"}
{"molecule": "O=C([O-])c1ccc2c(c1)-c1nc-2nc2[n-]c(nc3nc(nc4[n-]c(n1)c1ccc(C(=O)[O-])cc41)-c1ccc(C(=O)[O-])cc1-3)c1ccc(C(=O)[O-])cc21.[Gd+3].[K+]", "assigned-category": "n"}
{"molecule": "COc1cc(C(=O)/C=C/c2c(-c3cccs3)nc3sc(C)cn23)cc(OC)c1OC", "assigned-category": "n"}
{"molecule": "O=c1c2cc(I)ccc2nc(-c2cccs2)n1-c1ccc(S(=O)(=O)Nc2nccs2)cc1", "assigned-category": "n"}
{"molecule": "c1cc(N2CCCC2)c2nc(-c3[nH]ncc3Nc3ncnc4[nH]ccc34)[nH]c2c1", "assigned-category": "y"}

====

# Test system: BT-549 breast
# test-details: NCI tumour cell line growth inhibition, 48 h

{"compound": "CC(C)=CC(=O)OCC(=O)O[C@@H]1C[C@]2(C(C)C)O[C@@]1(C)[C@@H]1CC[C@@H](C)[C@H]1[C@@H]2OC(=O)/C=C/c1ccccc1", "TGI": "> 73.2 µM"}
{"compound": "COC(=O)NC(Nc1ccc(Cl)cc1Cl)(C(F)(F)F)C(F)(F)F", "TGI": "> 100 µM"}
{"compound": "COc1cc(/C=C2\\CC3C4CCC5=CC(=O)CC[C@]5(C)C4CC[C@]3(C)C2=O)ccc1OCCCn1ccnc1 (some centres undefined)", "TGI": "33.4 µM"}
{"compound": "CC(=O)Nc1ccc(-c2csc(Nc3ccc(-c4csc(-c5ccccc5)n4)cc3)n2)cc1", "TGI": "> 50 µM"}
{"compound": "CN1C(NN)=NS(=O)(=O)c2ccccc21", "TGI": "> 100 µM"}
{"compound": "CC1(C)CCC(S(=O)(=O)c2ccc3c(c2)/C(=N\\O)c2cc(S(=O)(=O)N4CCN(c5ccc(F)cc5O)CC4)ccc2-3)CC1", "TGI": "0.286 µM"}
{"compound": "c1ccc(N=C2SC(c3ccccc3)(c3ccccc3)c3ccccc32)cc1", "TGI": "> 100 µM"}
{"compound": "O=C(CC(=O)Nc1ccccc1Cl)NNC(c1cc(N=Nc2ccc(Br)cc2)ccc1O)P(O)O (centres undefined)", "TGI": "> 10 µM"}
{"compound": "Cc1ccc2nc(C=Nc3ccccc3Cl)cc(C)c2c1", "TGI": "30.1 µM"}

====

# Test system: NCI-H460 lung
Outcomes: active, inactive

{"compound": "Cc1c(NC(=O)c2cc(C(N)=O)nc3cc(F)ccc23)c(C(F)(F)F)nn1Cc1ccc(C#N)cc1", "assigned-category": "inactive"}
{"compound": "COc1cc2c3c(n(CCCN=[N+]=[N-])c(=O)c2cc1OC)-c1ccc(C#N)cc1C3=O", "assigned-category": "inactive"}
{"compound": "Cc1cc(C)c(CNC(=O)c2cc(-c3ccc(CN4CCOCC4)cc3)cc3c2cnn3C2CCCC2)c(=O)[nH]1", "assigned-category": "inactive"}
{"compound": "C=C(C)[C@@H]1CC[C@]2(CNCCO)CC[C@]3(C)[C@H](CC[C@@H]4[C@@]5(C)CCC(N)[C@@](C)(CO)[C@@H]5CC[C@]43C)[C@@H]12 (stereo partly drawn)", "assigned-category": "inactive"}
{"compound": "COc1cc(Nc2cc(C)nc(N3CCN(c4ccnc5cc(Cl)ccc45)CC3)n2)cc(OC)c1", "assigned-category": "active"}
{"compound": "N#CC(C#N)=C/C=C(\\Sc1ccc(F)c(Cl)c1)c1ccc(Cl)cc1", "assigned-category": "inactive"}
{"compound": "CC(C)(O)c1coc(S(=O)(=O)/N=C(\\O)Nc2c3c(cc4c2CCC4)CCC3)c1", "assigned-category": "inactive"}
{"compound": "COc1ccc2c(CCC(c3ccccc3)c3ccccc3)c3[n+](cc2c1OC)CCc1cc2c(cc1-3)OCO2", "assigned-category": "active"}
{"compound": "Nc1ccc2c(c1)Cc1cc(Cl)c(Cl)cc1-2", "assigned-category": "inactive"}
{"compound": "c1cc(N2CCCC2)c2nc(-c3[nH]ncc3Nc3ncnc4[nH]ccc34)[nH]c2c1", "assigned-category": "active"}
{"compound": "Ic1ccc2[nH]cc(SSc3c[nH]c4ccc(I)cc34)c2c1", "assigned-category": "inactive"}
{"compound": "Nc1nc(-c2cccc3ccccc23)cc2ccccc12", "assigned-category": "active"}
{"compound": "O=C([O-])c1ccc2c(c1)-c1nc-2nc2[n-]c(nc3nc(nc4[n-]c(n1)c1ccc(C(=O)[O-])cc41)-c1ccc(C(=O)[O-])cc1-3)c1ccc(C(=O)[O-])cc21.[Gd+3].[K+]", "assigned-category": "inactive"}
{"compound": "O=C1C=CC(=O)c2c1c1c(c3c2C2c4ccccc4C3c3ccccc32)C2c3ccccc3C1c1ccccc12", "assigned-category": "inactive"}
{"compound": "CCOC(=O)c1ccc2c(c1)c1c(C)c3ccncc3c(C)c1n2C", "assigned-category": "inactive"}
{"compound": "CC(C)(C)N=Cc1ccccc1[O-].CC(C)(C)N=Cc1ccccc1[O-].[Co+2]", "assigned-category": "inactive"}
{"compound": "COc1cc(CC(C)C(C)Cc2ccc(O)c(OC)c2)ccc1O (stereo not drawn)", "assigned-category": "inactive"}
{"compound": "CC(=O)OCC1OC(OC2=C(CC=C(C)C)C(=O)c3ccccc3C2=O)C(OC(C)=O)C(OC(C)=O)C1OC(C)=O (stereo not drawn)", "assigned-category": "inactive"}

====

# System: SN12C renal
# test-details: NCI tumour cell line growth inhibition, 48 h

{"compound": "COc1ccc2c(c1)N(CCO)C1=C(C(=O)OC1)C2c1cc(OC)c(OC)c(OC)c1 (stereo not drawn)", "TGI": "> 50 µM"}
{"compound": "O=c1[nH]c(=O)n(C2OC(CO)C(N(O)Cc3ccc(F)cc3)C2O)cc1Br (stereo not drawn)", "TGI": "> 100 µM"}
{"compound": "O=C([O-])c1ccc2c(c1)-c1nc-2nc2[n-]c(nc3nc(nc4[n-]c(n1)c1ccc(C(=O)[O-])cc41)-c1ccc(C(=O)[O-])cc1-3)c1ccc(C(=O)[O-])cc21.[Gd+3].[K+]", "TGI": "> 100 µM"}
{"compound": "COC(=O)c1c2c(c[n+]([O-])c1C)C(=O)C=C(NCc1ccccc1)C2=O", "TGI": "0.298 µM"}
{"compound": "CCN(CC)CCCNc1nc2ccccc2[n+]([O-])n1", "TGI": "> 100 µM"}
{"compound": "C/C(=N\\N(C)C)C(CN1CCCCC1)C(c1ccccc1)c1c(O)c2ccccc2oc1=O (stereo not drawn)", "TGI": "> 100 µM"}
{"compound": "COC(=O)CNC(=O)c1cc(C)cc2c1Oc1c(cc(C)cc1C(=O)NCC(=O)OC)S2", "TGI": "> 100 µM"}
{"compound": "C=CCN(C(=O)OC(C)(C)C)C1=CC2C(C)=CN(S(=O)(=O)c3ccccc3)C2C(OCc2ccccc2)=C1 (stereo not drawn)", "TGI": "> 100 µM"}

Origin of values: PubChem BioAssay (NCI)
